# system: Cyclin-dependent kinase 4/G1/S-specific cyclin-D1 (Homo sapiens, UniProt P11802)
# Sequence (P11802 whole entry): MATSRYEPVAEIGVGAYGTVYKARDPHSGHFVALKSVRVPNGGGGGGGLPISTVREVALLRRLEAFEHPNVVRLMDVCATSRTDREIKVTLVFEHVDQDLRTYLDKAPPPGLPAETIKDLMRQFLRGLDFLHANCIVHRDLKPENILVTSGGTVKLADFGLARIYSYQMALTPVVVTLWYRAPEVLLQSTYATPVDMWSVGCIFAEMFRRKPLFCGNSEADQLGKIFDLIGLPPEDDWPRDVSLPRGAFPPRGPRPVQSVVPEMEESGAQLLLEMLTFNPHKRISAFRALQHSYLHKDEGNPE
# Sequence (P24385 whole entry, further chain): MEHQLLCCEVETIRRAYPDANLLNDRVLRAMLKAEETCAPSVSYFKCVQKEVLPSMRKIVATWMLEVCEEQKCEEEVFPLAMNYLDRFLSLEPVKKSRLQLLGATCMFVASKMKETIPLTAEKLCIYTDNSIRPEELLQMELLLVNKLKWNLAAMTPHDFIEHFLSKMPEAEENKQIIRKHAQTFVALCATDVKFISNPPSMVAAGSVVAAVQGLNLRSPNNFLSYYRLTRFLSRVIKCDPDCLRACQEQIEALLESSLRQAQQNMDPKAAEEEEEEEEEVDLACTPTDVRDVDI
# protocol.text: CDK Kinase Inhibition Assay
# conditions: pH 7; 22 °C
measurement.type: IC50 (nM)
Numeric answer only, unit nM assumed.

- compound: "COC(=O)CC(NCC1Cc2cccc3c4c5c(c6c7ccc(F)cc7[nH]c6c4n(c23)C1)C(=O)NC5=O)C(=O)OC (stereo not given)"
  system: "Cyclin-dependent kinase 4/G1/S-specific cyclin-D1 (Homo sapiens, UniProt P11802)"
  measurement.type: "IC50"
  units.label: "nM"
  observed.measurement: 671
- compound: "O=C1NC(=O)c2c1c1c3ccc(F)cc3[nH]c1c1c2c2cccc3c2n1CC(CCl)C3 (stereo not given)"
  system: "Cyclin-dependent kinase 4/G1/S-specific cyclin-D1 (Homo sapiens, UniProt P11802)"
  measurement.type: "IC50"
  units.label: "nM"
  observed.measurement: 64
- compound: "CN(C)CC1Cc2cccc3c4c5c(c6c7ccccc7[nH]c6c4n(c23)C1)C(=O)NC5=O (stereo not given)"
  system: "Cyclin-dependent kinase 4/G1/S-specific cyclin-D1 (Homo sapiens, UniProt P11802)"
  measurement.type: "IC50"
  units.label: "nM"
  observed.measurement: 898

# evaluate next
# input Provide the documented IC50 with Cyclin-dependent kinase 4/G1/S-specific cyclin-D1 (Homo sapiens, UniProt P11802) as the system for CNCC1Cc2cccc3c4c5c(c6c7ccc(F)cc7[nH]c6c4n(c23)C1)C(=O)NC5=O (stereo not given)
# output 8

---

# system: cAMP-dependent protein kinase catalytic subunit alpha (Bos taurus, UniProt P00517)
# protocol.text: CDK Kinase Inhibition Assay
# conditions: 25 °C
Listed compounds paired with reported IC50

Look over these answered cases.
- compound: "COc1ccc2c(c1)[nH]c1c2c2c(c3c4cccc5c4n(c13)CC(CO)C5)C(=O)NC2=O (stereo not given)"
  IC50: "> 2000 nM"
- compound: "O=C1NC(=O)c2c1c1c3ccc(F)cc3[nH]c1c1c2c2cccc3c2n1CC(CO)C3 (stereo not given)"
  IC50: "> 2000 nM"
- compound: "O=C1NC(=O)c2c1c1c3ccc(C(F)(F)F)cc3[nH]c1c1c2c2cccc3c2n1CC(CO)C3 (stereo not given)"
  IC50: "> 2000 nM"
- compound: "CNCC1Cc2cccc3c4c5c(c6c7ccc(F)cc7[nH]c6c4n(c23)C1)C(=O)NC5=O (stereo not given)"
  IC50: "383 nM"

# evaluate next
# input Entry under review: O=C1NC(=O)c2c1c1c3ccc(F)cc3[nH]c1c1c2c2cccc3c2n1C(CO)CC3 (stereo not given) . Reported IC50?
# output > 2000 nM
